All figures here come from paper PMC10786891.

# Study Target: T1, EsCas13d, nuclease-dead (Eubacterium siraeum, UniProt B0MS50, R295A;H300A;R849A;H854A)
# T1 sequence: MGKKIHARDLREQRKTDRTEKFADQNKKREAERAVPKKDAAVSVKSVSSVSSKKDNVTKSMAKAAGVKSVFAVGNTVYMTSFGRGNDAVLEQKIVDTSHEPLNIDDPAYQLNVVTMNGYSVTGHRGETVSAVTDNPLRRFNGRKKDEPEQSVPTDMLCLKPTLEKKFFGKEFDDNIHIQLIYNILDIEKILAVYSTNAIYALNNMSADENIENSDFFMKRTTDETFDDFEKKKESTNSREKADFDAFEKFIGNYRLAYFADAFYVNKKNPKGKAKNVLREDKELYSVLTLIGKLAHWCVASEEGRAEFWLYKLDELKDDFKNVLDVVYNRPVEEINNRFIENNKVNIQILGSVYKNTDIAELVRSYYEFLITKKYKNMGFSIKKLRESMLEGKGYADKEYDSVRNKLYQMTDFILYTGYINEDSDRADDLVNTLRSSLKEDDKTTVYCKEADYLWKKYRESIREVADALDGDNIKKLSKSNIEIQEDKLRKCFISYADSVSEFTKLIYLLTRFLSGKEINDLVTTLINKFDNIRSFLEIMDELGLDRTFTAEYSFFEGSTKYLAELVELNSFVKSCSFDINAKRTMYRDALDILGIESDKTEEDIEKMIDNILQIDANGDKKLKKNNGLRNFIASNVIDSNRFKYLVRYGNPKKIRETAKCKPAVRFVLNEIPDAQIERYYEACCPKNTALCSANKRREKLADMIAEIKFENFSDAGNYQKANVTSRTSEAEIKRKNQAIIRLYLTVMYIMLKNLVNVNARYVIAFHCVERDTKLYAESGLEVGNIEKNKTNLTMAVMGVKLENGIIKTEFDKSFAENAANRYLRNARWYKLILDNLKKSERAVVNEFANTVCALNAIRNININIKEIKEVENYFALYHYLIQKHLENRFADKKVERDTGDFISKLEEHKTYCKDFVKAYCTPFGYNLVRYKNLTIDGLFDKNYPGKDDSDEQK
# Assay Remarks: crRNA (strand 1, pre-loaded); Mg2+; 40 mM Tris-HCl pH 7.5, 150 mM NaCl, 6 mM MgCl2, 1 mM DTT, 0.1% Tween-20, 0.2 mg/ml BSA; 25 C; 10 min per concentration, then washed
# Test Context: tags: His6-TwinStrep-SUMO cleaved; N-terminal SNAP kept (SNAP-Surface 488); label: 3' end held by stalled T7 RNA polymerase
Readout: pKd
API: returns pKd as number; meaning -log10 of concentration in mol/L.

For the binder target 1 insC 3' of 22,insC 3' of 5 (mixed) RNA 1: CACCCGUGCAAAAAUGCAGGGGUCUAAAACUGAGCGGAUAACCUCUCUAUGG RNA 2: GGGAAUGGAUCCACAUCUACGAAUUCGUACCCAUAGAGAGGUUAUCCGCCUCACCGAGAUCGGAAGAGCACACGU , report pKd. 7.22

Using known records, supply pKd for target 2 MT 5'PFS GCC 3'PFS ACA (mixed) RNA 1: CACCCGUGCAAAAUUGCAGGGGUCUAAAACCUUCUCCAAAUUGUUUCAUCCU RNA 2: GGGAAUGGAUCCACAUCUACGAAUUCGCCAGGAUGAAACAAUUUGGAGAAGACAAGAUCGGAAGAGCACACGU 7.97

Entry target 2 MT 5'PFS AGU 3'PFS ACG (mixed) RNA 1: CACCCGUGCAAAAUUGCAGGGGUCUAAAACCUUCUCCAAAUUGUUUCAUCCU RNA 2: GGGAAUGGAUCCACAUCUACGAAUUCAGUAGGAUGAAACAAUUUGGAGAAGACGAGAUCGGAAGAGCACACGU needs its pKd filled in; supply it. 7.86

Indicate the recorded pKd value for this binder: target 3 complement block 1-3 (mixed) RNA 1: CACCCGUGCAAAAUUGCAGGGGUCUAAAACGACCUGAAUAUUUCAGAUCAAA RNA 2: GGGAAUGGAUCCACAUCUACGAAUUCGUUUUUGAUCUGAAAUAUUCAGCAGUGCAGAUCGGAAGAGCACACGU 7.64

Determine from records and report pKd for target 2 MT 5'PFS ACU 3'PFS AUG (mixed) RNA 1: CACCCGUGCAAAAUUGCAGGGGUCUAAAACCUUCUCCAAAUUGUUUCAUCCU RNA 2: GGGAAUGGAUCCACAUCUACGAAUUCACUAGGAUGAAACAAUUUGGAGAAGAUGAGAUCGGAAGAGCACACGU 8.31

Name the recorded pKd of the binder listed here: target 1 A1U,A16G (mixed) RNA 1: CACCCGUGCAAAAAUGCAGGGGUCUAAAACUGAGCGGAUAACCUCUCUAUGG RNA 2: GGGAAUGGAUCCACAUCUACGAAUUCGUACCAUAGGGAGGUUAUCCGCUCUCCGAGAUCGGAAGAGCACACGU 7.48

For the binder target 2 MT 5'PFS UGC 3'PFS UCG (mixed) RNA 1: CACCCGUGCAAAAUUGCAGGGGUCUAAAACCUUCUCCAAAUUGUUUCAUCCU RNA 2: GGGAAUGGAUCCACAUCUACGAAUUCUGCAGGAUGAAACAAUUUGGAGAAGUCGAGAUCGGAAGAGCACACGU , give its measured pKd value. 7.22

Read the entry target 2 MT 5'PFS GGA 3'PFS UUG (mixed) RNA 1: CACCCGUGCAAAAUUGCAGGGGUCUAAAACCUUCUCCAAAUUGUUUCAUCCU RNA 2: GGGAAUGGAUCCACAUCUACGAAUUCGGAAGGAUGAAACAAUUUGGAGAAGUUGAGAUCGGAAGAGCACACGU and write its reported pKd. 7.74

Identify measured pKd associated with target 3 insG 3' of 6,insG 3' of 5 (mixed) RNA 1: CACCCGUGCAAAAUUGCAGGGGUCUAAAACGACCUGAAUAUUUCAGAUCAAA RNA 2: GGGAAUGGAUCCACAUCUACGAAUUCGUUUUUGAUCUGAAAUAUUCGAGGGUCUGCAGAUCGGAAGAGCACACGU 8.05

State its pKd for this binder: target 1 del2,del13 (mixed) RNA 1: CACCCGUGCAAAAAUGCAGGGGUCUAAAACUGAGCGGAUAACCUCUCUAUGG RNA 2: GGGAAUGGAUCCACAUCUACGAAUUCGUACCAUAGAGAGUUAUCCGCUACCGAGAUCGGAAGAGCACACGU 7.93

Hello, please tell me recorded pKd for this one: target 1 C7U,A14C (mixed) RNA 1: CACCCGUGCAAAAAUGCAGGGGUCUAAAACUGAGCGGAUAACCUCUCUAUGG RNA 2: GGGAAUGGAUCCACAUCUACGAAUUCGUACCAUAGAGCGGUUAUUCGCUCACCGAGAUCGGAAGAGCACACGU 7.52

For the binder target 1 insC 3' of 11,insG 3' of 9 (mixed) RNA 1: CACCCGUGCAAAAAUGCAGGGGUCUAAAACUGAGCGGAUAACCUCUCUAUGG RNA 2: GGGAAUGGAUCCACAUCUACGAAUUCGUACCAUAGAGAGGUCUAGUCCGCUCACCGAGAUCGGAAGAGCACACGU , report pKd. 7.50

Please list pKd recorded for the binder target 2 MT 5'PFS GUC 3'PFS AAC (mixed) RNA 1: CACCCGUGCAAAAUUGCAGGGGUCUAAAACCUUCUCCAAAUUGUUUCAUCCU RNA 2: GGGAAUGGAUCCACAUCUACGAAUUCGUCAGGAUGAAACAAUUUGGAGAAGAACAGAUCGGAAGAGCACACGU 8.01

Answer with the recorded pKd of target 3 insC 3' of 2,insG 3' of 1 (mixed) RNA 1: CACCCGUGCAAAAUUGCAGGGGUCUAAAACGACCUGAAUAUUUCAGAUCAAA RNA 2: GGGAAUGGAUCCACAUCUACGAAUUCGUUUUUGAUCUGAAAUAUUCAGGUCCGUGCAGAUCGGAAGAGCACACGU only. 7.28
